- Tested on: AR 1.0 cells
- Method: Potentiation index with doxorubicin titration
- Type: cell-based, mouse
- Run conditions: Table C1, RMA 50 nM
- Experimental: The EMT6 mouse mammary carcinoma cell line and the MDR resistant subline AR 1.0 were cultured in RPMI 1640 medium containing 10% foetal calf serum and 2 mM glutamine at 37° C. in 5% CO2. […] (b) Cells were cultured for four days with a titration of doxorubicin (0.263 nM-17.24 μM) in the presence of a fixed concentration of each compound. Proliferation was quantified as described by Skehen et al, loc cit. […]
So basically: is Potentiation Index at RMA concentration 50 nM under 7? Then criterion met. Not under? Then criterion not met.

Answered examples (4):
- Compound: "COc1cc2c(cc1OC)CN(CCc1ccc(NC(=O)c3ccccc3NC(=O)c3coc(C)n3)cc1)CC2 [compound 9638]"
  Assigned label: "criterion met"
- Compound: "COc1cc2c(cc1OC)CN(CCc1ccc(NC(=O)c3sccc3NC(=O)c3cnc4ccccc4c3)cc1)CC2 [compound 9594]"
  Assigned label: "criterion not met"
- Compound: "COc1cc2c(cc1OC)CN(CCc1ccc(NC(=O)c3cscc3NC(=O)c3cnc4ccccc4c3)cc1)CC2 [compound 9616]"
  Assigned label: "criterion not met"
- Compound: "COc1cc2c(cc1OC)CN(CCOc1ccc(NC(=O)c3ccccc3NC(=O)c3cnc4ccccc4n3)cc1)CC2 [compound 9632]"
  Assigned label: "criterion met"

Challenge: is_below(Potentiation Index at RMA concentration 50 nM, 7) for COc1cc2c(cc1OC)CN(CCc1ccc(NC(=O)c3cc(SC)ccc3NC(=O)c3cnc4ccccc4c3)cc1)CC2 [compound 9615] ?
Response given: criterion not met

Challenge: is_below(Potentiation Index at RMA concentration 50 nM, 7) for COc1ccc(CN(C)CCc2ccc(NC(=O)c3ccccc3NC(=O)c3cnc4ccccc4n3)cc2)cc1OC [compound 9612] ?
Response given: criterion not met
